# System: HCT-15 colon
# Assay procedure: NCI tumour cell line growth inhibition, 48 h; in the data active means GI50 below about 0.43 µM; inactive means the rest
Entry note: the call must match one of class 1 = active, class 0 = inactive

Here's what some known entries look like.
Compound: Oc1ccc(-c2nc3ccccc3s2)cc1CN(Cc1ccccn1)Cc1ccccn1
Answer label: class 1
--
Compound: CNC(=O)c1ccccc1Nc1nc(Nc2cc(OC)c(OC)c(OC)c2)ncc1Br
Answer label: class 1
--
Compound: CCC[CH2][Sn]1([CH2]CCC)[O]CC(CN(C)Cc2ccccc2)[O]1 (stereo unspecified)
Answer label: class 0
--
Compound: O=C(c1ccccc1)C1OC1c1ccc([N+](=O)[O-])cc1 (stereo unspecified)
Answer label: class 0

**Query** Lab log entry: [N-]=[N+]=NCCCCCC(=O)OC(C(=O)c1ccccc1)c1cccc(OCC(=O)NCCOCCOCCNC(=O)CCCC[C@@H]2SC[C@@H]3NC(=O)N[C@@H]32)c1 (stereo partly specified) — outcome as called in the assay?
**Result** class 0

**Query** Lab log entry: "O=C1C=CC(=Nc2cc(Br)c(O)c(Br)c2)C=C1" — outcome as called in the assay?
**Result** class 0

**Query** Lab log entry: "Cc1nnc(-c2cccc(-c3ccc(C(=O)NCC4CC4)cc3)c2)o1" — outcome as called in the assay?
**Result** class 0

**Query** Lab log entry: "CC(C)=CCC/C(C)=C/CC/C(C)=C/CSc1ccccc1C(=O)O" — outcome as called in the assay?
**Result** class 0

**Query** Lab log entry: "S=C(Nc1ccc(-c2nc3ccccc3[nH]2)cc1)Nc1ccc(-c2nc3ccccc3[nH]2)cc1" — outcome as called in the assay?
**Result** class 0

**Query** Lab log entry: "O=C(COc1cc(O)c2c(=O)cc(-c3ccccc3)oc2c1)Nc1ccccc1C(F)(F)F" — outcome as called in the assay?
**Result** class 0

**Query** Lab log entry: "Cc1csc(/C=C/C(=O)c2nnn(-c3ccnc4c(C(F)(F)F)cccc34)c2C)c1" — outcome as called in the assay?
**Result** class 0

---

# Tested on: SK-OV-3 ovarian
# Assay procedure: NCI tumour cell line growth inhibition, 48 h
The molecules listed here are annotated with their GI50.

Field: example entries. Status: answers known.
Molecule: CO/N=C(\C)c1ccc(Nc2cc(-c3ccccc3)nc3ccc(OC)cc23)cc1
Subject of test: SK-OV-3 ovarian
Measurement: 15.2 µM
--
Molecule: C[C@@]12CCC[C@@](C)(C(=O)O)C1CC[C@]13C[C@@](O)(CO)[C@](O)(CCC12)C3 (stereo partly drawn)
Subject of test: SK-OV-3 ovarian
Measurement: > 100 µM

In the following, a different molecule is considered.
**Query** Report GI50 for "C=CC(=O)Nc1cc(C)ccc1Nc1nc(Nc2cc(OC)ncc2C)ncc1C(F)(F)F"
**Result** 4.09 µM

---

# System: 786-0 renal
# Assay procedure: NCI tumour cell line growth inhibition, 48 h
Quantity name: TGI

**Query** Report TGI for "Nc1c(C(=O)Nc2cccc(F)c2)sc2nc3c(cc12)C(=O)CCC3"
**Result** > 100 µM

**Query** Report TGI for Cc1cc(Cc2cc(C)c(NC(=O)C(=O)C3CCC4=C(SC5C=CC=CC5N4)C3=O)c(C(C)C)c2)cc(C(C)C)c1NC(=O)C(=O)C1CCC2=C(SC3C=CC=CC3N2)C1=O (stereo not drawn)
**Result** > 100 µM

**Query** Report TGI for O=C(CCN1CCN(c2ccccc2)CC1)N1CCc2c([nH]c3ccccc23)C1c1cccnc1 (stereo not drawn)
**Result** 29.5 µM

Each recorded value in this set is attributed to PubChem BioAssay (NCI).
